Tested on: XF498
test-protocol: NCI tumour cell line growth inhibition, 48 h
Activity calls are given as the source filed them. No stated cut-off is given here; in the data, active = GI50 up to about 1.1 µM and inactive = higher.
Result category, one only: active, inactive

These solved cases illustrate the format of a correct answer.
COc1ccc(CCC2NCCc3cc(OC)c(OC)cc32)cc1 (centres undefined)
inactive
O=C1OCc2c1cc1ccc(O)c(OC3OC(CO)C(O)C(O)C3O)c1c2-c1ccc2c(c1)OCO2 (centres undefined)
inactive
N#CN=C(N(Cc1ccccc1)Cc1ccccc1)N(Cc1ccccc1)Cc1ccccc1
inactive
CCOC(=O)C1S(=O)(=O)OCCOS1(=O)=O
inactive

query: Per the assay record, what outcome was assigned to Cc1ccc(OCC(=O)N2N=C(c3ccccc3)CC2(O)c2ccccc2)cc1 (centres undefined) ?
result: inactive

query: Also, CC(C)N(C(=O)C12C3C4C5C3C1(C#N)C5C42)C(C)C (centres undefined) please.
result: inactive

query: Also, `CC1=CC(=O)NCCN1C` please.
result: inactive

query: Also, `N#Cc1nn(-c2ccc(Cl)cc2)c(=N)c2c(N)n3nc(-c4ccccc4)cc3nc12` please.
result: inactive

query: Also, `CC#C[C@@]1(O)CCCC[C@@H]1O` please.
result: inactive

query: Also, `COc1cccc(/C=C\c2cc(OC)c(OC)c(OC)c2)c1` please.
result: inactive
